# subject.of.test: T1, RSV prefusion F (preF), subtype B (respiratory syncytial virus subtype B)
# T1 construct: also called Prefusion subtype B
# procedure.details: BLI, IgG
reported.endpoint: log10 of Kd (log10 of the value in nM)
Annotation: log10 of Kd, nM basis.

Answered cases to consult:
>>> reported_measurement("ADI-14357 (antibody, V domains shown, full-length IgG; also called Ab 25) VH: EVQLVESGGGVVQPGRSLRLSCAASGFTFSNYAMHWVRQAPGKGLEWVSIISYDGSNKYYADSVKGRFTISRDNSKNTLYLQINSLRTEDTAVYYCARARKRIPIVVVTAPYYYGMDVWGQGTTVTVSS VL: DIRVTQSPSSLSASVGDRVTITCRASQSISSYLHWYQQQPGKAPNLLIYAASNLQSGVPSRFSGSGSGTDFTLTISSLQPEDFATYYCQQSYTTPHTFGQGTKVEIK")
-0.51
>>> reported_measurement("ADI-19449 (antibody, V domains shown, full-length IgG) VH: EVQLVESGGGLVKPGGSLRLSCAASGFTFSSYSMNWVRQAPGKGLEWVSSISSSSSYIYYADSVKGRFTISRDNAKNSLYLQMNSLRAEDTAVYYCARDSGSYLSYAFDIWGQGTMVTVSS VL: SYELTQPPSVSGAPGQRVTISCTGSSSNIGAGYDVHWYQQLPGTAPKLLIYGNSNRPSGVPDRFSGSKSGTSASLAITGLQAEDEADYYCQSYDSSLSGYVFGTGTKVTVL")
1.41
>>> reported_measurement("ADI-24792 (antibody, V domains shown, full-length IgG) VH: EVQLVESGGGLVKPGGSLRLSCAASGFIFSDYYMSWIRQAPGKGLEWVSNISGGSSFTNYADSVKGRFTISRDNAKNSLYLQMNSLRAEDTAVYYCARDLGYCSSNSCLDAFDIWGQGTTVTVSS VL: QSVLTQPPSVSGAPGQRVTISCTGSSSNIGAGYDVHWYQQLPGTAPKLLIYGNTNRPSGVPDRFSGSRSGTSASLAITGLQAEDEADYYCQSYDSSLSGSLFGGGTKVTVL")
0.26

Would you mind giving log10 of Kd for every binder in the list below?
1. ADI-24854 (antibody, V domains shown, full-length IgG) VH: EVQLVESGGGLVKPGGSLRLSCAASGFTFSSYSMNWVRQAPGKGLEWVSSISSSSSYIYYADSVKGRFTISRDNAKNSLYLQMNSLRAEDTAVYYCARDRRFGELFYFDYWGQGTLVTVSS VL: QSVLTQPPSVSGAPGQRVTISCTGSSSNIGAGYDVHWYQQLPGTAPKLLIYGNSNRPSGVPDRFSGSKSGTSASLAITGLQAEDEADYYCQSYDSSLSGNWVFGGGTKLTVL
2. ADI-22771 (antibody, V domains shown, full-length IgG; also called Ab 350) VH: EVQLVESGGGLVKPGGSLRLSCAASGFTFSSYSMNWVRQAPGKGLEWVSSISSSSSYIYYADSVKGRFTISRDNAKNSLYLQMNSLRAEDTAVYYCARDYSSGWYYFDYWGQGTLVTVSS VL: QPVLTQPPSVSGAPGQRVTISCTGSSSNIGAGYDVHWYQQLPGTAPKLLIYGNSNRPSGVPDRFSGSKSGTSASLAITGLQAEDEADYYCQSYDSSLSGSVFGGGTKLTVL

output:
1.48
0.97

The reported measurements were obtained from patent US20260258115A1.
